Assignment: determine reported combination Emax for the given molecules.
test system: NCI-H2087 (Lung Adenocarcinoma); test: combination Emax (second highest fraction inhibited in the dose matrix, 72 h); higher = more inhibition; extreme values may be limits of the assay
One number for each entry.

| MOLECULE | ATTRIBUTE_MEASURED | NUMERIC_READOUT |
| --- | --- | --- |
| C=CCn1c(=O)c2cnc(Nc3ccc(N4CCN(C)CC4)cc3)nc2n1-c1cccc(C(C)(C)O)n1 [AZD1775] + Nc1ccn([C@@H]2O[C@H](CO)[C@@H](O)C2(F)F)c(=O)n1 [Gemcitabine] (first compound max 1 µM, partner max 0.3 µM) | combination Emax | 0.6 |
| Cc1cc2ncnn2cc1Nc1ncc2c(n1)n(C1CCOCC1)c(=O)n2C [AZD7648] + CCN(CCO)CCCOc1ccc2c(Nc3cc(CC(=O)Nc4cccc(F)c4)[nH]n3)ncnc2c1 [AZD2811] (first compound max 10 µM, 7x7, partner max 1 µM) | combination Emax | 0.215 |
| Cc1c2c(nn1C)CSCc1cc(n(C)n1)CSc1cc(c3ccccc3c1)OCCCc1c(C(=O)O)n(C)c3c-2c(Cl)ccc13 [AZD5991] + CN(C)CCCOc1ccc(-c2ccc3ncc4c(c3c2)n(C2CCOCC2)c(=O)n4C)cn1 [AZD0156] (first compound max 1 µM, 7x7, partner max 1 µM) | combination Emax | 0.201 |
| CS(=O)(=O)CCNCc1ccc(-c2ccc3ncnc(Nc4ccc(OCc5cccc(F)c5)c(Cl)c4)c3c2)o1 [Lapatinib] + Cn1cnc2c(F)c(Nc3ccc(Br)cc3Cl)c(C(=O)NOCCO)cc21 [Selumetinib] (first compound max 10 µM, 7x7, partner max 10 µM) | combination Emax | 0.575 |
| C[C@@H](Nc1cc(F)cc(F)c1)c1cc(C(=O)N(C)C)cc2c(=O)cc(N3CCOCC3)oc12 [AZD8186] + C1CN(CCC1(C(=O)N[C@@H](CCO)C2=CC=C(C=C2)Cl)N)C3=NC=NC4=C3C=CN4 [AZD5363] (first compound max 10 µM, 7x7, partner max 10 µM) | combination Emax | 0.195 |

I need combination Emax for every entry listed below, if you could help.
1. Cc1c2c(nn1C)CSCc1cc(n(C)n1)CSc1cc(c3ccccc3c1)OCCCc1c(C(=O)O)n(C)c3c-2c(Cl)ccc13 [AZD5991] + C[C@@H]1COCCN1C2=NC(=NC(=C2)C3(CC3)[S@](=N)(=O)C)C4=C5C=CNC5=NC=C4 [AZD6738] (first compound max 1 µM, 7x7, partner max 10 µM)
2. CN(CCO)CC[C@H](CSc1ccccc1)Nc1ccc(S(=O)(=O)NC(=O)c2ccc(N3CCC([C@@H](O)c4ccccc4-c4ccc(Cl)cc4)CC3)cc2)cc1S(=O)(=O)C(F)(F)F [AZD4320] + CCN(CCO)CCCOc1ccc2c(Nc3cc(CC(=O)Nc4cccc(F)c4)[nH]n3)ncnc2c1 [AZD2811] (first compound max 1 µM, 7x7, partner max 1 µM)

1. 0.588
2. 0.464

* * *

test system: SK-HEP-1 (Hepatocellular Carcinoma); assay: Bliss excess, mean over the matrix (fraction); higher = more synergy;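 note: after 72 h of two-drug dosing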
ATTRIBUTE_MEASURED: Bliss excess

| MOLECULE | Bliss excess |
| --- | --- |
| O=C(c1cc(Cc2n[nH]c(=O)c3ccccc23)ccc1F)N1CCN(C(=O)C2CC2)CC1 [Olaparib] + Cc1c2c(nn1C)CSCc1cc(n(C)n1)CSc1cc(c3ccccc3c1)OCCCc1c(C(=O)O)n(C)c3c-2c(Cl)ccc13 [AZD5991] (first compound max 10 µM, 7x7, partner max 1 µM) | -0.0101 |

GET /values?readout=Bliss excess&item= CN(CCO)CC[C@H](CSc1ccccc1)Nc1ccc(S(=O)(=O)NC(=O)c2ccc(N3CCC([C@@H](O)c4ccccc4-c4ccc(Cl)cc4)CC3)cc2)cc1S(=O)(=O)C(F)(F)F [AZD4320] + Cn1cnc2c(F)c(Nc3ccc(Br)cc3Cl)c(C(=O)NOCCO)cc21 [Selumetinib] (first compound max 1 µM, 7x7, partner max 3 µM) 0.0008

* * *

test system: NCI-H716 (Colorectal Carcinoma); assay: combination Emax (second highest fraction inhibited in the dose matrix, 72 h); higher = more inhibition; extreme values may be limits of the assay
ATTRIBUTE_MEASURED: combination Emax
Answers are plain numbers.

Solved cases below.
| MOLECULE | NUMERIC_READOUT |
| --- | --- |
| CN(CCO)CC[C@H](CSc1ccccc1)Nc1ccc(S(=O)(=O)NC(=O)c2ccc(N3CCC([C@@H](O)c4ccccc4-c4ccc(Cl)cc4)CC3)cc2)cc1S(=O)(=O)C(F)(F)F [AZD4320] + CN(C)CCCOc1ccc(-c2ccc3ncc4c(c3c2)n(C2CCOCC2)c(=O)n4C)cn1 [AZD0156] (first compound max 1 µM, 7x7, partner max 1 µM) | 0.195 |
| Cn1cnc2c(F)c(Nc3ccc(Br)cc3Cl)c(C(=O)NOCCO)cc21 [Selumetinib] + C[C@@H]1COCCN1C2=NC(=NC(=C2)C3(CC3)[S@](=N)(=O)C)C4=C5C=CNC5=NC=C4 [AZD6738] (first compound max 10 µM, 7x7, partner max 10 µM) | 0.577 |
| Cn1cnc2c(F)c(Nc3ccc(Br)cc3Cl)c(C(=O)NOCCO)cc21 [Selumetinib] + C=CCn1c(=O)c2cnc(Nc3ccc(N4CCN(C)CC4)cc3)nc2n1-c1cccc(C(C)(C)O)n1 [AZD1775] (first compound max 10 µM, partner max 1 µM) | 0.428 |
| C=CCn1c(=O)c2cnc(Nc3ccc(N4CCN(C)CC4)cc3)nc2n1-c1cccc(C(C)(C)O)n1 [AZD1775] + C[C@@H]1COCCN1C2=NC(=NC(=C2)C3(CC3)[S@](=N)(=O)C)C4=C5C=CNC5=NC=C4 [AZD6738] (first compound max 1 µM, partner max 10 µM) | 0.623 |
| C[C@@H](c1ccc2nccn2c1)n1nnc2ncc(-c3cnn(C)c3)nc21 [Savolitinib] + CC1(C)CCC(CN2CCN(c3ccc(C(=O)NS(=O)(=O)c4ccc(NCC5CCOCC5)c([N+](=O)[O-])c4)c(Oc4cnc5[nH]ccc5c4)c3)CC2)=C(c2ccc(Cl)cc2)C1 [Venetoclax] (first compound max 1 µM, 7x7, partner max 1 µM) | 0.251 |
| Cc1c2c(nn1C)CSCc1cc(n(C)n1)CSc1cc(c3ccccc3c1)OCCCc1c(C(=O)O)n(C)c3c-2c(Cl)ccc13 [AZD5991] + CN(C)CCCOc1ccc(-c2ccc3ncc4c(c3c2)n(C2CCOCC2)c(=O)n4C)cn1 [AZD0156] (first compound max 1 µM, 7x7, partner max 1 µM) | 0.294 |
| Cc1c2c(nn1C)CSCc1cc(n(C)n1)CSc1cc(c3ccccc3c1)OCCCc1c(C(=O)O)n(C)c3c-2c(Cl)ccc13 [AZD5991] + Cn1cnc2c(F)c(Nc3ccc(Br)cc3Cl)c(C(=O)NOCCO)cc21 [Selumetinib] (first compound max 1 µM, 7x7, partner max 3 µM) | 0.515 |
| CC1(C)CCC(CN2CCN(c3ccc(C(=O)NS(=O)(=O)c4ccc(NCC5CCOCC5)c([N+](=O)[O-])c4)c(Oc4cnc5[nH]ccc5c4)c3)CC2)=C(c2ccc(Cl)cc2)C1 [Venetoclax] + C[C@@H](Nc1cc(F)cc(F)c1)c1cc(C(=O)N(C)C)cc2c(=O)cc(N3CCOCC3)oc12 [AZD8186] (first compound max 1 µM, 7x7, partner max 3 µM) | 0.225 |

I need combination Emax for every entry listed below, if you could help.
1. Cc1c2c(nn1C)CSCc1cc(n(C)n1)CSc1cc(c3ccccc3c1)OCCCc1c(C(=O)O)n(C)c3c-2c(Cl)ccc13 [AZD5991] + C1CN(CCC1(C(=O)N[C@@H](CCO)C2=CC=C(C=C2)Cl)N)C3=NC=NC4=C3C=CN4 [Capivasertib] (first compound max 1 µM, 7x7, partner max 3 µM)
2. Cn1cnc2c(F)c(Nc3ccc(Br)cc3Cl)c(C(=O)NOCCO)cc21 [Selumetinib] + CC(C)n1c(=O)n(C)c2cnc3cc(F)c(-c4ccc(OCCCN5CCCCC5)nc4)cc3c21 [AZD1390] (first compound max 10 µM, 7x7, partner max 0.3 µM)
3. Cc1c2c(nn1C)CSCc1cc(n(C)n1)CSc1cc(c3ccccc3c1)OCCCc1c(C(=O)O)n(C)c3c-2c(Cl)ccc13 [AZD5991] + CCN(CCO)CCCOc1ccc2c(Nc3cc(CC(=O)Nc4cccc(F)c4)[nH]n3)ncnc2c1 [AZD2811] (first compound max 1 µM, 7x7, partner max 1 µM)
4. C=CCn1c(=O)c2cnc(Nc3ccc(N4CCN(C)CC4)cc3)nc2n1-c1cccc(C(C)(C)O)n1 [AZD1775] + C1CN(CCC1(C(=O)N[C@@H](CCO)C2=CC=C(C=C2)Cl)N)C3=NC=NC4=C3C=CN4 [Capivasertib] (first compound max 3 µM, partner max 3 µM)
5. Cc1nc(Nc2ncc(C(=O)Nc3c(C)cccc3Cl)s2)cc(N2CCN(CCO)CC2)n1 [Dasatinib] + CC(=O)Nc1cccc(-n2c(=O)n(C3CC3)c(=O)c3c(Nc4ccc(I)cc4F)n(C)c(=O)c(C)c32)c1 [Trametinib] (first compound max 2 µM, 7x7, partner max 1 µM)

1. 0.401
2. 0.452
3. 0.349
4. 0.727
5. 0.472
